# Experimental Target: UniProt P37288
# Sequence (P37288 whole entry): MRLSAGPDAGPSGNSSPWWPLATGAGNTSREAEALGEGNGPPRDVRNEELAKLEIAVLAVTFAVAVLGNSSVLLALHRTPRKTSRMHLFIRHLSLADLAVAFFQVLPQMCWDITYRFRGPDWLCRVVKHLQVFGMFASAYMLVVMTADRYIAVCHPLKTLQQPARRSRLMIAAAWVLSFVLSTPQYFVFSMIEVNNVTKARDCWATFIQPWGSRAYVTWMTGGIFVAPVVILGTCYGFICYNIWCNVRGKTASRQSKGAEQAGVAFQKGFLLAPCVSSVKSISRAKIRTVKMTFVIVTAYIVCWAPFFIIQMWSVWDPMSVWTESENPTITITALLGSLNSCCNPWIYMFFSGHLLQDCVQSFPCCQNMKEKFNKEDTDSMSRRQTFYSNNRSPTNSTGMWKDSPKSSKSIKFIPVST
# Experiment: Agonist activity at recombinant human V1a receptor expressed in HEK293 cells assessed as increase in intracellular calcium level measured at 3 secs interval for 5 mins by fura-2/AM dye based micro spectrofluorometric method
Starred links: 1 amine or outer side, 2 acyl side, 3 side chain; linkers in the order of their positions; H or OH if unused. Positions of bridges follow the written chain, without caps; N, C: chain ends. Non-standard residues stand in square brackets, D forms with d. Residues, ends and D or L forms follow the SMILES beside them. Abu(4-yl) = O=C([C@H](CC[*:3])N[*:1])[*:2]; N(4-F-Bzl)Gly = O=C(O)CNCc1ccc(F)cc1
Measurement Label: EC50 (nM)
All answers are understood in nM, so give the number only.

# Molecule, Experimental Value
measured = [
    ("CC[C@H](C)[C@@H]1NC(=O)[C@H](Cc2ccc(O)cc2)NC(=O)[C@@H](N)CSSC[C@@H](C(=O)N(CC(=O)N[C@@H](CC(C)C)C(=O)NCC(N)=O)Cc2ccc(F)cc2)NC(=O)[C@H](CC(N)=O)NC(=O)[C@H](CCC(N)=O)NC1=O (H-CYIQNC[N(4-F-Bzl)Gly]LG-NH2; disulfide 1-6)", 2.2),
]

# input for lookup
stdin: I would be grateful if you could share the reported EC50 for CC[C@H](C)[C@@H]1NC(=O)[C@H](Cc2ccc(O)cc2)NC(=O)[C@@H](N)CCSC[C@@H](C(=O)N(CC(=O)N[C@@H](CC(C)C)C(=O)NCC(N)=O)Cc2ccc(F)cc2)NC(=O)[C@H](CC(N)=O)NC(=O)[C@H](CCC(N)=O)NC1=O (H-[Abu(4-yl)]YIQNC[N(4-F-Bzl)Gly]LG-NH2; thioether 1-6) .
stdout: 4

###

# Experiment: Stability in mouse plasma assessed as parent compound remaining at 50 ng/ml measured after 2 hrs by LC-MS/MS analysis
# Format: ADME, cell-free
# Test Context: read-out: Stability
Starred links: 1 amine or outer side, 2 acyl side, 3 side chain; linkers in the order of their positions; H or OH if unused. Positions of bridges follow the written chain, without caps; N, C: chain ends. Non-standard residues stand in square brackets, D forms with d. Residues, ends and D or L forms follow the SMILES beside them. N(4-F-Bzl)Gly = O=C(O)CNCc1ccc(F)cc1; X1 = O=C(CN(CCCO)[*:1])[*:2]
Measurement Label: remaining at 2 h, 50 ng/ml

# Compound, Experimental Value
records = [
    ("CC[C@H](C)[C@@H]1NC(=O)[C@H](Cc2ccc(O)cc2)NC(=O)[C@@H](N)CSSC[C@@H](C(=O)N(CC(=O)N[C@@H](CC(C)C)C(=O)NCC(N)=O)Cc2ccc(F)cc2)NC(=O)[C@H](CC(N)=O)NC(=O)[C@H](CCC(N)=O)NC1=O (H-CYIQNC[N(4-F-Bzl)Gly]LG-NH2; disulfide 1-6)", "85 to 115%"),
    ("CC[C@H](C)[C@@H]1NC(=O)[C@H](Cc2ccc(O)cc2)NC(=O)[C@@H](N)CSSC[C@@H](C(=O)N(CCCO)CC(=O)N[C@@H](CC(C)C)C(=O)NCC(N)=O)NC(=O)[C@H](CC(N)=O)NC(=O)[C@H](CCC(N)=O)NC1=O (H-CYIQNC[X1]LG-NH2; disulfide 1-6)", "85 to 115%"),
]

# input for lookup
stdin: I would be grateful if you could share the reported remaining at 2 h, 50 ng/ml for `CC[C@H](C)[C@@H]1NC(=O)[C@H](Cc2ccc(O)cc2)NC(=O)[C@@H](N)CSSC[C@@H](C(=O)N2CCC[C@H]2C(=O)N[C@@H](CC(C)C)C(=O)NCC(N)=O)NC(=O)[C@H](CC(N)=O)NC(=O)[C@H](CCC(N)=O)NC1=O` .
stdout: 85 to 115%

###

Listing of entries alongside the reported pKi.
# Experimental Target: Oxytocin receptor (Homo sapiens, UniProt P30559)
# Sequence (P30559 whole entry): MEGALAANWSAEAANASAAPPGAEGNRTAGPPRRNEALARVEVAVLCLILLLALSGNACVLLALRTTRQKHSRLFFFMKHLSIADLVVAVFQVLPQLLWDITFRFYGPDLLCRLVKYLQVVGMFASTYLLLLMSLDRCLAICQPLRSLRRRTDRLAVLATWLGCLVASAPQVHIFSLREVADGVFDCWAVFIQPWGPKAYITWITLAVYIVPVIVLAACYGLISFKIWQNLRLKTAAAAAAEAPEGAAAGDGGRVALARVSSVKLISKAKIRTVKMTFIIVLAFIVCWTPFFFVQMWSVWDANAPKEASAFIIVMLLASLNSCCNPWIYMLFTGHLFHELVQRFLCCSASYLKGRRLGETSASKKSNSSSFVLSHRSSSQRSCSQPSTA
# Experiment: Displacement of [3H]OT from recombinant human OTR expressed in HEK293 cell membranes measured after 1 hr
Starred links: 1 amine or outer side, 2 acyl side, 3 side chain; linkers in the order of their positions; H or OH if unused. Positions of bridges follow the written chain, without caps; N, C: chain ends. Non-standard residues stand in square brackets, D forms with d. Residues, ends and D or L forms follow the SMILES beside them. Abu(4-yl) = O=C([C@H](CC[*:3])N[*:1])[*:2]; N(4-F-Bzl)Gly = O=C(O)CNCc1ccc(F)cc1; X1 = O=C(CN(CCCO)[*:1])[*:2]
Please report pKi as the negative decimal logarithm of the molar concentration, giving only the number.

# Compound, Experimental Value
records = [
    ("CC[C@H](C)[C@@H]1NC(=O)[C@H](Cc2ccc(O)cc2)NC(=O)[C@@H](N)CCSC[C@@H](C(=O)N(CCCO)CC(=O)N[C@@H](CC(C)C)C(=O)NCC(N)=O)NC(=O)[C@H](CC(N)=O)NC(=O)[C@H](CCC(N)=O)NC1=O (H-[Abu(4-yl)]YIQNC[X1]LG-NH2; thioether 1-6)", 8.52),
]

stdin: Write down the reported pKi of CC[C@H](C)[C@@H]1NC(=O)[C@H](Cc2ccc(O)cc2)NC(=O)[C@@H](N)CCSC[C@@H](C(=O)N(CC(=O)N[C@@H](CC(C)C)C(=O)NCC(N)=O)Cc2ccc(F)cc2)NC(=O)[C@H](CC(N)=O)NC(=O)[C@H](CCC(N)=O)NC1=O (H-[Abu(4-yl)]YIQNC[N(4-F-Bzl)Gly]LG-NH2; thioether 1-6) , test system: Oxytocin receptor (Homo sapiens, UniProt P30559).
stdout: 9.05

stdin: Write down the reported pKi of CC[C@H](C)[C@@H]1NC(=O)[C@H](Cc2ccc(O)cc2)NC(=O)[C@@H](N)CSSC[C@@H](C(=O)N(CC(=O)N[C@@H](CC(C)C)C(=O)NCC(N)=O)Cc2ccc(F)cc2)NC(=O)[C@H](CC(N)=O)NC(=O)[C@H](CCC(N)=O)NC1=O (H-CYIQNC[N(4-F-Bzl)Gly]LG-NH2; disulfide 1-6) , test system: Oxytocin receptor (Homo sapiens, UniProt P30559).
stdout: 9.29

stdin: Write down the reported pKi of CC[C@H](C)[C@@H]1NC(=O)[C@H](Cc2ccc(O)cc2)NC(=O)[C@@H](N)CSSC[C@@H](C(=O)N(CCCO)CC(=O)N[C@@H](CC(C)C)C(=O)NCC(N)=O)NC(=O)[C@H](CC(N)=O)NC(=O)[C@H](CCC(N)=O)NC1=O (H-CYIQNC[X1]LG-NH2; disulfide 1-6) , test system: Oxytocin receptor (Homo sapiens, UniProt P30559).
stdout: 8.85

// provenance: ChEMBL document CHEMBL4390679
